# test details: NCI Yeast Anticancer Drug Screen. Data for the bub3 strain (AID 167)
# stated conditions: S. cerevisiae bub3 mutant strain, at 50.0 µM, stronger effect = higher value
The panel holds about 79,000 compounds, 15% with a hit somewhere; the sample as a whole holds those more often.
observation type: growth inhibition (%)
Kindly answer with a numeric value in %, unit omitted.

Before answering, review these 4 worked examples.
| compound | growth inhibition [%] |
| --- | --- |
| O=C(NCCCCNCCCNC(=O)OCc1ccccc1)OCc1ccccc1 | -20.4 |
| CCC(C)(CC)OC(=O)c1ccc([N+](=O)[O-])cc1 | 2.85 |
| Cc1cccn(C)c1=O | 0.4 |
| Cc1c(Cl)ccc2c1NC(=O)C2(O)C1Cc2ccccc2C1=O (configuration not stated) | 15.1 |

Q: Which value of growth inhibition has been reported for "CCOC(=O)c1cnc2ccccc2c1" in the records?
Ans: -1.15

Q: Which value of growth inhibition has been reported for ClCC1CCC(CCl)CC1 (configuration not stated) in the records?
Ans: -21.7

Q: Which value of growth inhibition has been reported for "Nc1nnc(N)c2nc(-c3ccccc3)c(-c3ccccc3)nc12" in the records?
Ans: 8.15

Q: Which value of growth inhibition has been reported for "Nc1nnc(-c2cccc(-c3nnc(N)o3)c2)o1" in the records?
Ans: -6.5

Q: Which value of growth inhibition has been reported for "CCCCCCCC(=O)Oc1c(Cl)c(Cl)c(C#N)c(Cl)c1C#N" in the records?
Ans: 5.8

Q: Which value of growth inhibition has been reported for "c1ccc2c(c1)CCc1ccccc1N2" in the records?
Ans: 15.1

Q: Which value of growth inhibition has been reported for "COC(=O)/C=C(\C(=O)OC)C(C(=O)c1ccccc1)=P(c1ccccc1)(c1ccccc1)c1ccccc1" in the records?
Ans: 3.55

Q: Which value of growth inhibition has been reported for "NNS(=O)(=O)c1cccc(S(=O)(=O)NN)c1" in the records?
Ans: 5.35

====

# test details: NCI Yeast Anticancer Drug Screen. Data for the rad50 strain (AID 155);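 further: 0% = growth of vehicle-only cultures of the same strain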
# stated conditions: S. cerevisiae rad50 strain growth inhibition; at 50.0 µM; stronger effect = higher value
About 79,000 compounds went through this panel and 15% of them were active in at least one assay; those are over-represented in the sample as a whole.
observation type: growth inhibition (%)
Kindly answer with a numeric value in %, unit omitted.

| molecule | unit spec | growth inhibition |
| --- | --- | --- |
| Cc1c2c(cc3c1[nH]c1ccccc13)C(c1ccc(F)cc1)=NCC2 | % | -1.8 |

Q: Which value of growth inhibition has been reported for "COc1ccc(/C=C2/N=C(c3ccccc3)OC2=O)cc1" in the records?
Ans: -2.75

Q: Which value of growth inhibition has been reported for "O=C(O)c1c2ccccc2nc2c1sc1ccccc12" in the records?
Ans: -17.9

Q: Which value of growth inhibition has been reported for COc1ccc(N2C(=O)C3c4[nH]c5ccccc5c4C4CCCCCCCCCCC4C3C2=O)cc1 (stereo not given) in the records?
Ans: 9.95

Q: Which value of growth inhibition has been reported for "CCOC(=O)C1(C(=O)OCC)CCCCC1=O" in the records?
Ans: 13.2

Q: Which value of growth inhibition has been reported for "CN(C)c1ccc(C=C(c2ccc(N)cc2)c2ccc(N)cc2)cc1" in the records?
Ans: 9.25

Q: Which value of growth inhibition has been reported for "CCOC(=O)C(C(=O)OCC)c1cc(-c2cc3ccccc3o2)oc(=O)c1C#N" in the records?
Ans: 47.7

Q: Which value of growth inhibition has been reported for CCCCc1ccc(Nc2nc(OC)c3ncn(C4CC(O)C(CO)O4)c3n2)cc1 (stereo not given) in the records?
Ans: 88.1

Q: Which value of growth inhibition has been reported for "O=[N+]([O-])c1nccn1COCCI" in the records?
Ans: 7.25

====

Measured growth inhibition by item
# test details: NCI Yeast Anticancer Drug Screen. Data for the mec2-1 strain (AID 157)
# stated conditions: S. cerevisiae mec2-1 strain, at 50.0 µM, stronger effect = higher value
# Experimental: Growth inhibition of yeast strains with defined genetic alterations is measured as a screen for potential anti-cancer activity. Selected strains with alterations in DNA damage repair or cell cycle control were exposed to compounds and growth inhibition was measured relative to vehicle treated controls. The strain used in this assay is mec2-1
This is part of a sample that, as a whole, favours compounds with a hit. Of some 79,000 tested, about 15% had one in any assay.
Kindly answer with a numeric value in %, unit omitted.

Before answering, review these 6 worked examples.
| compound | assay result |
| --- | --- |
| CCN1C(=O)/C(=C/c2cc([N+](=O)[O-])ccc2OCC(=O)O)SC1=S | -11.3 |
| C/C(O)=C(\C=N\C(=S)N=Nc1c(O)[nH]c2ccccc12)C(=O)Nc1ccccc1C | 36.6 |
| O=C1CCCc2[nH]c3ccc(Cl)cc3c21 | 0.3 |
| CC(=O)Oc1ccc(C(C)C)cc1 | -30.9 |
| CCOC(=O)C(=O)C1CCCC(C)C1=O (stereo not given) | 11.8 |
| N#C/C(C(=O)Nc1ccccc1)=C(/N)N1CCCC1 | -15.7 |

Next compound, please.
Q: Which value of growth inhibition has been reported for "CCCCCC(=O)C(C)(c1nc2nnc(NC(=O)Nc3ccc(Cl)cc3)n2[nH]c1=O)c1nc2nnc(NC(=O)Nc3ccc(Cl)cc3)n2[nH]c1=O" in the records?
Ans: -21.6

====

# test details: NCI Yeast Anticancer Drug Screen. Data for the cln2 rad14 strain (AID 165);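 further: 0% = growth equal to vehicle treated cultures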
# stated conditions: S. cerevisiae cln2 rad14 strain, at 50.0 µM, stronger effect = higher value
Compounds without any hit were thinned out: in the full panel of roughly 79,000, 15% have a hit.
observation type: growth inhibition (%)
Kindly answer with a numeric value in %, unit omitted.

Before answering, review these 2 worked examples.
| compound | growth inhibition (%) |
| --- | --- |
| C=CCNC(=O)N(CCC)CCCCC(NC(C)=O)C(=O)NCc1ccccc1 (stereo unspecified) | 18.6 |
| O=C1CSC(=O)N1 | -32.8 |

Q: Which value of growth inhibition has been reported for CCOC(=O)C(C)(C(C)=O)c1nc(=S)[nH]c(=S)[nH]1 (stereo unspecified) in the records?
Ans: -19.8

Q: Which value of growth inhibition has been reported for C=C1c2[nH]c3ccccc3c2CC(C(=O)O)N1C(O)c1ccc(S(=O)(=O)O)cc1 (stereo unspecified) in the records?
Ans: -45.6

Q: Which value of growth inhibition has been reported for "COC(=O)c1ccc(C(=O)OC)c(N)c1" in the records?
Ans: -33

Q: Which value of growth inhibition has been reported for "CCCS(=O)(=O)N/N=C(\C)c1cccs1" in the records?
Ans: -35.5

Q: Which value of growth inhibition has been reported for COc1cc2cc3c4cc(OC)c(OC)cc4cc[n+]3c(CCC(=O)O)c2cc1OC (tested in a mixture with another compound) in the records?
Ans: -4

Q: Which value of growth inhibition has been reported for "CCOC(=O)C(C)(NC(=O)c1ccc(NCc2ccc3nc(NC(=O)c4ccccc4)nc(NC(=O)c4ccccc4)c3c2)cc1)C(=O)OCC" in the records?
Ans: -24.1

====

# test details: NCI Yeast Anticancer Drug Screen. Data for the cln2 rad14 strain (AID 165);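 further: 0% = growth equal to vehicle treated cultures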
# stated conditions: S. cerevisiae cln2 rad14 strain, at 50.0 µM, stronger effect = higher value
The panel holds about 79,000 compounds, 15% with a hit somewhere; the sample as a whole holds those more often.
Rule: growth inhibition of -10% or more gives 1 (yes); anything lower gives 0 (no).

# count of solved cases: 5
| compound | group label |
| --- | --- |
| CCCCOC(=O)NC(=O)c1cc2ccc(N(CC)CC)cc2oc1=O | 1 (yes) |
| Cc1cccc2c1C(=O)C(C1OC(=O)c3ccccc31)C2 (stereo not drawn) | 0 (no) |
| NC(=O)N/N=C/c1cccc([N+](=O)[O-])c1 | 0 (no) |
| CCCCCCC(=O)/C=C/c1ccc(Cl)cc1 | 1 (yes) |
| CC(=O)OC/C=C(C)/C=C/C=C(C)/C=C/C1=C(C)CCCC1(C)C | 1 (yes) |

Q: State whether the measured growth inhibition reaches -10%, counting equality as reaching it, for "CNC(=S)N(C1CCCCC1)C1CCCCC1"
Ans: 0 (no)

Q: State whether the measured growth inhibition reaches -10%, counting equality as reaching it, for "CCOCCNCc1ccc(Cl)cc1Cl"
Ans: 1 (yes)

Q: State whether the measured growth inhibition reaches -10%, counting equality as reaching it, for "CCOc1ccc(NC(=O)Oc2ccc(-c3ccccc3)cc2)cc1"
Ans: 0 (no)

Q: State whether the measured growth inhibition reaches -10%, counting equality as reaching it, for "Cc1cccc(C)c1NC(=O)N(Cc1ccccc1)Cc1ccccc1"
Ans: 1 (yes)

Q: State whether the measured growth inhibition reaches -10%, counting equality as reaching it, for "CCc1cc(C)cc(C(C)(C)C)c1"
Ans: 1 (yes)

Q: State whether the measured growth inhibition reaches -10%, counting equality as reaching it, for "CC(C)(N)CNCC(C)(C)N"
Ans: 1 (yes)

Q: State whether the measured growth inhibition reaches -10%, counting equality as reaching it, for "O=C(Nc1ccccc1F)C(c1ccccc1)c1ccccc1"
Ans: 1 (yes)

Q: State whether the measured growth inhibition reaches -10%, counting equality as reaching it, for "[O-]c1on[n+]2c1c(Nc1ccc(Cl)cc1)nc1ccccc12"
Ans: 0 (no)
